Target: Human immunodeficiency virus type 1 reverse transcriptase (Human immunodeficiency virus 1) (UniProt Q72547)
Test: Compounds were evaluated for anti-RT activity by MTT dose and %protection was reported at 7 days of culture
Type: functional
Please go through the items and note down their Protection.
The figure you give is taken to be in %; do not add the unit.

IN: If you can, please state the reported Protection value of Cc1cn([C@H]2C[C@H](N=[N+]=[N-])[C@@H](CO)O2)c(=O)[nH]c1=O [ZIDOVUDINE] .
OUT: 100

IN: If you can, please state the reported Protection value of CCCCCCCCCCCCCCCCOP(=O)(OCCO[C@H]1O[C@H](CO)[C@@H](O)[C@H](O)[C@@H]1O)OCC1OC(n2cc(C)c(=O)[nH]c2=O)CC1N=[N+]=[N-] (stereo partly specified) .
OUT: 21

IN: If you can, please state the reported Protection value of Cc1cn([C@H]2C[C@H](N=[N+]=[N-])[C@@H](COP(=O)(O)OCCO[C@H]3O[C@H](CO)[C@@H](O)[C@H](O)[C@@H]3O)O2)c(=O)[nH]c1=O .
OUT: 20

IN: If you can, please state the reported Protection value of Cc1cn([C@H]2C[C@H](N=[N+]=[N-])[C@@H](COP(=O)(O)OC[C@H]3OC(O)[C@@H](O)[C@@H](O)[C@@H]3O)O2)c(=O)[nH]c1=O (stereo partly specified) .
OUT: 38

IN: If you can, please state the reported Protection value of CCCCCCCCCCCCCCCCOP(=O)(OC[C@H]1OC(O)[C@H](O)[C@@H](O)[C@@H]1O)OC[C@H]1OC(n2cc(C)c(=O)[nH]c2=O)C[C@@H]1N=[N+]=[N-] (stereo partly specified) .
OUT: 81

IN: If you can, please state the reported Protection value of CCCCCCCCCCCCCCCCOP(=O)(OC[C@H]1OC(O)[C@@H](O)[C@@H](O)[C@@H]1O)OC[C@H]1OC(n2cc(C)c(=O)[nH]c2=O)C[C@@H]1N=[N+]=[N-] (stereo partly specified) .
OUT: 68

====

Target: Human immunodeficiency virus type 1 reverse transcriptase (Human immunodeficiency virus 1) (UniProt Q72547)
Experiment: Compound ability to inhibit the production of HIV reverse transcriptase (RT) in culture supernatant of CEM-CL13 on at 22 days at a concentration 5 uM
Format: functional
Please go through the items and note down their Activity (c.p.m. 50ul-1).
Lab note: jot down the number only; don't add units.

IN: If you can, please state the reported Activity (c.p.m. 50ul-1) value of Cc1cn([C@H]2C[C@H](N=[N+]=[N-])[C@@H](COP(=O)(O)OC[C@H]3OC(O)[C@H](O)[C@@H](O)[C@@H]3O)O2)c(=O)[nH]c1=O (some centres undefined) .
OUT: 1500

IN: If you can, please state the reported Activity (c.p.m. 50ul-1) value of Cc1cn([C@H]2C[C@H](N=[N+]=[N-])[C@@H](COP(=O)(O)OCCO[C@H]3O[C@H](CO)[C@@H](O)[C@H](O)[C@@H]3O)O2)c(=O)[nH]c1=O .
OUT: 5500

IN: If you can, please state the reported Activity (c.p.m. 50ul-1) value of Cc1cn([C@H]2C[C@H](N=[N+]=[N-])[C@@H](COP(=O)(O)OC[C@H]3OC(O)[C@@H](O)[C@@H](O)[C@@H]3O)O2)c(=O)[nH]c1=O (some centres undefined) .
OUT: 12000

IN: If you can, please state the reported Activity (c.p.m. 50ul-1) value of Cc1cn([C@H]2C[C@H](N=[N+]=[N-])[C@@H](CO)O2)c(=O)[nH]c1=O .
OUT: 500

====

Biological target: Human immunodeficiency virus type 1 reverse transcriptase (Human immunodeficiency virus 1)
Assay: Compound ability to inhibit the production of HIV reverse transcriptase (RT) in culture supernatant of CEM-CL13 on at 7 days at a concentration 5 uM
Format: functional
Measurement kind: Activity (c.p.m. 50ul-1)
Lab note: jot down the number only; don't add units.

IN: If you can, please state the reported Activity (c.p.m. 50ul-1) value of Cc1cn([C@H]2C[C@H](N=[N+]=[N-])[C@@H](COP(=O)(O)OC[C@H]3OC(O)[C@@H](O)[C@@H](O)[C@@H]3O)O2)c(=O)[nH]c1=O (some centres undefined) .
OUT: 1500

IN: If you can, please state the reported Activity (c.p.m. 50ul-1) value of Cc1cn([C@H]2C[C@H](N=[N+]=[N-])[C@@H](CO)O2)c(=O)[nH]c1=O .
OUT: 900

IN: If you can, please state the reported Activity (c.p.m. 50ul-1) value of Cc1cn([C@H]2C[C@H](N=[N+]=[N-])[C@@H](COP(=O)(O)OCCO[C@H]3O[C@H](CO)[C@@H](O)[C@H](O)[C@@H]3O)O2)c(=O)[nH]c1=O .
OUT: 1670

IN: If you can, please state the reported Activity (c.p.m. 50ul-1) value of Cc1cn([C@H]2C[C@H](N=[N+]=[N-])[C@@H](COP(=O)(O)OC[C@H]3OC(O)[C@H](O)[C@@H](O)[C@@H]3O)O2)c(=O)[nH]c1=O (some centres undefined) .
OUT: 1100

====

Biological target: Human immunodeficiency virus type 1 reverse transcriptase (Human immunodeficiency virus 1) (UniProt Q72547)
Assay: Percent inhibition measured as the production of HIV reverse transcriptase (RT) in culture supernatant of monocytic U937 on at 14 days at a concentration 0.2 uM
Format: functional
Measurement kind: inhibition (%)
The figure you give is taken to be in %; do not add the unit.

IN: If you can, please state the reported inhibition value of CCCCCCCCCCCCCCCCOP(=O)(OCCO[C@H]1O[C@H](CO)[C@@H](O)[C@H](O)[C@@H]1O)OCC1OC(n2cc(C)c(=O)[nH]c2=O)CC1N=[N+]=[N-] (some centres undefined) .
OUT: 0

IN: If you can, please state the reported inhibition value of Cc1cn([C@H]2C[C@H](N=[N+]=[N-])[C@@H](CO)O2)c(=O)[nH]c1=O .
OUT: 0

IN: If you can, please state the reported inhibition value of CCCCCCCCCCCCCCCCOP(=O)(OC[C@H]1OC(O)[C@H](O)[C@@H](O)[C@@H]1O)OC[C@H]1OC(n2cc(C)c(=O)[nH]c2=O)C[C@@H]1N=[N+]=[N-] (some centres undefined) .
OUT: 14

IN: If you can, please state the reported inhibition value of CCCCCCCCCCCCCCCCOP(=O)(OC[C@H]1OC(O)[C@@H](O)[C@@H](O)[C@@H]1O)OC[C@H]1OC(n2cc(C)c(=O)[nH]c2=O)C[C@@H]1N=[N+]=[N-] (some centres undefined) .
OUT: 0

====

Molecular target: Human immunodeficiency virus type 1 reverse transcriptase (Human immunodeficiency virus 1) (UniProt Q72547)
Assay: Compound ability to inhibit the production of HIV reverse transcriptase (RT) in culture supernatant of CEM-CL13 on at 26 days at a concentration 5 uM
Type: functional
Measurement kind: Activity (c.p.m. 50ul-1)
Lab note: jot down the number only; don't add units.

IN: If you can, please state the reported Activity (c.p.m. 50ul-1) value of Cc1cn([C@H]2C[C@H](N=[N+]=[N-])[C@@H](COP(=O)(O)OC[C@H]3OC(O)[C@@H](O)[C@@H](O)[C@@H]3O)O2)c(=O)[nH]c1=O (some centres undefined) .
OUT: 103000

IN: If you can, please state the reported Activity (c.p.m. 50ul-1) value of Cc1cn([C@H]2C[C@H](N=[N+]=[N-])[C@@H](COP(=O)(O)OCCO[C@H]3O[C@H](CO)[C@@H](O)[C@H](O)[C@@H]3O)O2)c(=O)[nH]c1=O .
OUT: 42000

IN: If you can, please state the reported Activity (c.p.m. 50ul-1) value of Cc1cn([C@H]2C[C@H](N=[N+]=[N-])[C@@H](CO)O2)c(=O)[nH]c1=O .
OUT: 1300

IN: If you can, please state the reported Activity (c.p.m. 50ul-1) value of Cc1cn([C@H]2C[C@H](N=[N+]=[N-])[C@@H](COP(=O)(O)OC[C@H]3OC(O)[C@H](O)[C@@H](O)[C@@H]3O)O2)c(=O)[nH]c1=O (some centres undefined) .
OUT: 6000

====

Target: Human immunodeficiency virus type 1 reverse transcriptase (Human immunodeficiency virus 1)
Settings: at 25 µM
Description: Percent inhibition measured as the production of HIV reverse transcriptase (RT) in culture supernatant of monocytic U937 on at 11 days at a concentration 25 uM
Measurement kind: inhibition (%)
The figure you give is taken to be in %; do not add the unit.

IN: If you can, please state the reported inhibition value of Cc1cn([C@H]2C[C@H](N=[N+]=[N-])[C@@H](COP(=O)(O)OC[C@H]3OC(O)[C@@H](O)[C@@H](O)[C@@H]3O)O2)c(=O)[nH]c1=O (some centres undefined) .
OUT: 2

IN: If you can, please state the reported inhibition value of Cc1cn([C@H]2C[C@H](N=[N+]=[N-])[C@@H](COP(=O)(O)OC[C@H]3OC(O)[C@H](O)[C@@H](O)[C@@H]3O)O2)c(=O)[nH]c1=O (some centres undefined) .
OUT: 0

IN: If you can, please state the reported inhibition value of Cc1cn([C@H]2C[C@H](N=[N+]=[N-])[C@@H](COP(=O)(O)OCCO[C@H]3O[C@H](CO)[C@@H](O)[C@H](O)[C@@H]3O)O2)c(=O)[nH]c1=O .
OUT: 20

IN: If you can, please state the reported inhibition value of Cc1cn([C@H]2C[C@H](N=[N+]=[N-])[C@@H](CO)O2)c(=O)[nH]c1=O .
OUT: 25
